Exercise: state measured pest or weed control at 560 g/ha for each of the molecules provided.
System: Amaranthus rudis (AMATA), tall water hemp
Experiment: Postemergence herbicide evaluation, growth of Amaranthus rudis (AMATA)
Format: in vivo
Details: Amaranthus tuberculatus, post-emergence, 504 h, read-out: Ave. AMATA
Express your answer in %, writing the number without its unit.

So, O=C(COc1ccc(Cl)cc1Cl)OCCOCCOCCOCCOC(=O)COc1ccc(Cl)cc1Cl ? Its pest or weed control at 560 g/ha was 92.5

So, O=C(COc1ccc(Cl)cc1Cl)OCc1ccccc1 [Compound E4, Benzyl 2-(2,4-dichlorophenoxy)acetate] ? Its pest or weed control at 560 g/ha was 91

So, O=C(COc1ccc(Cl)cc1Cl)n1cnc2ccccc21 ? Its pest or weed control at 560 g/ha was 95

So, O=C(COc1ccc(Cl)cc1Cl)OCCCCCCOC(=O)COc1ccc(Cl)cc1Cl ? Its pest or weed control at 560 g/ha was 62.5

So, O=C(COc1ccc(Cl)cc1Cl)OCCOCCOCCOC(=O)COc1ccc(Cl)cc1Cl ? Its pest or weed control at 560 g/ha was 67.5

So, O=C(COc1ccc(Cl)cc1Cl)OCOC(=O)c1ccccc1 ? Its pest or weed control at 560 g/ha was 89

So, O=C(COc1ccc(Cl)cc1Cl)Nc1ccc(Cl)cc1 ? Its pest or weed control at 560 g/ha was 65

So, O=C(COc1ccc(Cl)cc1Cl)OCCOC(=O)COc1ccc(Cl)cc1Cl ? Its pest or weed control at 560 g/ha was 82.5

So, N#C/C(=N\OC(=O)COc1ccc(Cl)cc1Cl)c1ccccc1 ? Its pest or weed control at 560 g/ha was 81
